Overview of reported MBC across a group of compounds:
system: Streptococcus pneumoniae; assay: Bactericidal activity against erythromycin-susceptible Streptococcus pneumoniae ATCC49619 pretreated followed by subculture in absence of compound measured after 24 hrs; format: functional

| structureString | boundSign | MBC (µg/mL) |
| --- | --- | --- |
| CC[C@H]1OC(=O)[C@@](C)(F)C(=O)[C@H](C)[C@@H](O[C@@H]2O[C@H](C)C[C@H](N(C)C)[C@H]2O)[C@](C)(OC)C[C@@H](C)/C(=N\OCC#Cc2ccc3c(c2)c(=O)c(C(=O)O)cn3C2CC2)[C@H](C)[C@H]2OC(=O)O[C@@]21C | = | 0.5 |
| CC[C@H]1OC(=O)[C@@](C)(F)C(=O)[C@H](C)[C@@H](O[C@@H]2O[C@H](C)C[C@H](N(C)C)[C@H]2O)[C@](C)(OC)C[C@@H](C)/C(=N\OC/C=C/c2cncc(C(=O)O)c2)[C@H](C)[C@H]2OC(=O)O[C@@]21C | = | 0.5 |
| CC[C@H]1OC(=O)[C@@](C)(F)C(=O)[C@H](C)[C@@H](O[C@@H]2O[C@H](C)C[C@H](N(C)C)[C@H]2O)[C@](C)(OC)C[C@@H](C)/C(=N\OC/C=C/c2ccc3c(c2)c(=O)c(C(N)=O)cn3CC)[C@H](C)[C@H]2OC(=O)O[C@@]21C | ≤ | 0.008 |
| CC[C@H]1OC(=O)[C@@](C)(F)C(=O)[C@H](C)[C@@H](O[C@@H]2O[C@H](C)C[C@H](N(C)C)[C@H]2O)[C@](C)(OC/C=C/c2ccc3c(c2)c(=O)c(C(=O)O)cn3C2CC2)C[C@@H](C)/C(=N\OC)[C@H](C)[C@H]2OC(=O)O[C@@]21C | = | 0.25 |
